Hello, the source for this data is patent US11845741B2, in case you need it.

# method: Ex vivo corneal permeation, Franz diffusion cell
# Format: in vitro ADME
# conditions: rabbit, rabbit cornea, dQ/dt from data in 1 h; read-out: permeability coefficient
# Experimental: Ex vivo corneal permeation studies. Corneas were extracted from fresh rabbit eyes and mounted immediately in a Franz diffusion cell system with the epithelial surface facing the donor chamber. In each test, Pilo, PiloHCl, or [Pilo-OEG]Cl (200 μL, 27 mM) was loaded to the donor chamber. […] At pre-determined time points up to 4 h, an aliquot of 1 mL from the receiver chamber was collected via syringe and analyzed with UV-Vis spectrophotometer (U-3010, Hitachi). […]
assay-endpoint: Papp at 1 h, 27 mM (×10⁻⁶ cm/s)
Output spec: scalar in ×10⁻⁶ cm/s, unitless text.

**Query** Dear colleague, I am looking for the recorded Papp at 1 h, 27 mM of the following compound: CC[C@@H]1C(=O)OC[C@@H]1Cc1c[n+](CCOCCOCCO)cn1C.[Cl-] [[Pilo-OEG]Cl]
**Result** 13

* * *

# method: Stability test: pH of aqueous solutions over 24 h
# Format: physicochemical
# conditions: water solution, calculated/estimated from pH at 0 h, 5 mM in water; read-out: dissociation constant (pKa)
assay-endpoint: pKa
Reply with the value as a number alone.

**Query** Dear colleague, I am looking for the recorded pKa of the following compound: CC[C@@H]1C(=O)OC[C@@H]1Cc1cncn1C
**Result** 7.28
